Reference source: ChEMBL document CHEMBL2069209

Experiment: Selectivity ratio of IC50 for human SKBR3 cells to IC50 for bloodstream form of Trypanosoma brucei 427
Assay type: ADME, cell-based, SK-BR-3
Settings: read-out: Ratio IC50
measuredMetric: selectivity ratio

Examples with their reported selectivity ratio follow.
smilesData	selectivity ratio
COc1ccc(CC(=O)Nc2ccc(N(C)S(C)(=O)=O)c(OCc3cc(C)ccc3C)c2)cc1OC	5
CN(c1ccc(NC(=O)c2ccc(C#N)cc2)cc1OCc1ccccc1)S(C)(=O)=O	6
Cc1ccc(C)c(COc2cc(NC(=O)c3ccc4c(c3)OCO4)ccc2N(C)S(C)(=O)=O)c1	0.1
Cc1ccc(C)c(COc2cc(NC(=O)Cc3ccccc3)ccc2N(C)S(C)(=O)=O)c1	2.3
CN(c1ccc(NC(=O)c2ccc(Cl)c([N+](=O)[O-])c2)cc1OCc1ccccc1)S(C)(=O)=O	4

Okay, next one:
Looking for the measured selectivity ratio of `Cc1ccc(C)c(COc2cc(NC(=O)c3ccccc3)ccc2N(C)S(C)(=O)=O)c1` , can you help?
0.6
